Tested on: CAKI-1 renal
assay_method_text: NCI-60 one-dose screen, 48 h (100 = growth as untreated, 0 = no growth, -100 = all killed)
cond: 10 µM unless noted
The panel holds about 83,000 compounds, 20% with a hit somewhere; the sample as a whole holds those more often. Active and inactive are the calls of the source. Rule for the calls: active = growth percent below 10; inactive = the rest.
reported_endpoint: growth

In: Entry `Oc1ccc(OCCOc2ccc(O)cc2)cc1` needs its growth filled in; supply it.
Out: 11.4% (inactive)

In: Identify growth associated with the compound `COCCCN1CC(O)=C(c2nc(-c3ccc(C)cc3)cs2)C1=N`
Out: 96.1% (inactive)

In: Quote growth reported for `COc1ccc2c(c1)oc1c(C)c3c(c(C)c12)C(=O)N(N)C3=O` please.
Out: 34.2% (inactive)

In: Provide only the value of recorded growth for O=C(/C(=C\c1ccc([N+](=O)[O-])cc1)S(=O)Cc1ccc(Cl)cc1)c1ccc(Cl)cc1 (centres undefined)
Out: 83.8% (inactive)

In: Give the value of growth reported for the following: CCN(CC)CCCC(C)Nc1cc(O)cc2cccnc12 (centres undefined)
Out: 109% (inactive)

In: Return growth for the following compound: `C=C(CBr)[C@@H]1CC[C@]2(COC(C)=O)CC[C@]3(C)[C@H](CC[C@@H]4[C@@]5(C)CCCNC(C)(C)[C@@H]5CC[C@]43C)[C@@H]12`
Out: 37.5% (inactive)

In: Supply recorded growth for `C/C(=N\Nc1cc(C)nc2ccc(Br)cc12)c1ccc([N+](=O)[O-])cc1` here.
Out: 84.6% (inactive)

In: Retrieve growth measured for `COc1cccc(C(=O)NNc2nc(Cl)nc(N3CCN(C(c4ccccc4)c4ccccc4)CC3)n2)c1` and print it.
Out: 68.7% (inactive)

In: Annotate the compound `COc1cc2c3c(c4c5ccccc5[nH]c4c2c(OC)c1OC)C(=O)N(CCN1CCOCC1)C3=O` with its measured growth.
Out: 40.9% (inactive)

Measured values drawn from PubChem BioAssay (NCI) for this set.
